Test: Pharmacokinetic profile in mice after oral gavage
Assay type: in vivo, mouse
Details: mouse; fasted male Hilltop mice, 10 mg/kg oral gavage, plasma; read-out: Cmax
metric: Cmax (ng/mL)

a: N#Cc1ccc(CCNC(=O)[C@@H]2CCN2c2cc(N3CCC(CCCC(=O)O)CC3)nc(C(F)(F)F)n2)cc1 [Compound 231]
b: CS(=O)(=O)NCCNC(=O)CCCC1CCN(c2cc(N3CCC[C@H]3C(=O)NCCc3ccc(C(F)(F)F)cc3)nc(C(F)(F)F)n2)CC1 [Compound 91]
c: N#Cc1ccc(CCNC(=O)[C@@H]2CCCN2c2cc(N3CCC(CCCC(=O)O)CC3)cc(C(F)(F)F)n2)cc1 [Compound 197]
d: N#Cc1ccc(CCNC(=O)[C@@H]2CCN2c2cc(N3CCC(CCCC(=O)NCCCCNC(=N)N)CC3)nc(C(F)(F)F)n2)cc1 [Compound 283]
Data request: Order these compounds (above) by their Cmax, from the smallest value upward. # respond with the labels, arranged in the requested order
Data returned: d, b, a, c

I: O=C(O)CCC1CCN(c2cc(N3CC[C@H]3C(=O)NCCc3ccc(C(F)(F)F)cc3)nc(C(F)(F)F)n2)CC1 [Compound 232]
II: CS(=O)(=O)NCCNC(=O)CCCC1CCN(c2cc(N3CCC[C@H]3C(=O)NCCc3ccc(C#N)cc3)nc(C(F)(F)F)n2)CC1 [Compound 93]
Data request: Quick one: lower Cmax, I or II ? Give the chosen item's label as your response.
Data returned: II

A: N#Cc1ccc(CCNC(=O)[C@@H]2CCCN2c2cc(N3CCC(CCNS(=O)(=O)CCN)CC3)nc(C(F)(F)F)n2)cc1 [Compound 116]
B: N#Cc1ccc(CCNC(=O)[C@@H]2CCCN2c2cc(N3CCC(CCCC(=O)N[C@@H](CCC(=O)O)C(=O)O)CC3)nc(C(F)(F)F)n2)cc1 [Compound 76]
Data request: Out of A and B , name the one with the higher Cmax. Your answer should be the label attached to the chosen record.
Data returned: A

P: N#Cc1ccc(CCNC(=O)[C@@H]2CCCN2c2cc(N3CCC(OCC#CCS(=O)(=O)O)CC3)nc(C(F)(F)F)n2)cc1 [Compound 134]
Q: O=C(CCCC1CCN(c2cc(N3CCC[C@H]3C(=O)NCCc3ccc(C(F)(F)F)cc3)nc(C(F)(F)F)n2)CC1)NCCNc1ncnc2[nH]cnc12 [Compound 95]
Data request: Smaller Cmax value, P vs Q ? Answer by quoting the chosen item's label.
Data returned: Q
(Q: 2 ng/mL, P: 22 ng/mL)

###

Test: Portal vein versus systemic pharmacokinetics in hepatic portal vein cannulated CD(SD) rats
Assay type: in vivo
Conditions: male, rat, plasma (portal vein blood), Portal Vein bleed, 10 mg/kg oral
metric: Cmax (ng/mL)
Kindly answer with a numeric value in ng/mL, unit omitted.

Data request: Which Cmax reading was recorded for the molecule `N#Cc1ccc(CCNC(=O)[C@@H]2CCN2c2cc(N3CCC(CCNC(=O)NCCC(=O)O)CC3)nc(C(F)(F)F)n2)cc1` ?
Data returned: 15.7

###

Below: a set of entries, each annotated with reported EC50.
Biological target: mouse TGR5 receptor (Mus musculus, UniProt Q80SS6)
Construct: host or cells: HEK293-EBNA (293 c18, ATCC CRL10852)
Sequence (Q80SS6 whole entry): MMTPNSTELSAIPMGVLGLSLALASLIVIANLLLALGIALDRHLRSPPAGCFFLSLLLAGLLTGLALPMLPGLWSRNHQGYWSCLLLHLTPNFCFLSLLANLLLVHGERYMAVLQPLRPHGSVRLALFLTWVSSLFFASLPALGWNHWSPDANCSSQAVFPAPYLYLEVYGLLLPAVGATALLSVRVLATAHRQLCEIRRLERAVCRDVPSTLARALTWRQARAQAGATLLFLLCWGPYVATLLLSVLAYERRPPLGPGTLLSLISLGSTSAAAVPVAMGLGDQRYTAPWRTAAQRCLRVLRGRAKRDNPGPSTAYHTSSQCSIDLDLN
Assay: Mouse TGR5 luminescent cAMP production assay (HEK293-EBNA cells, DiscoveRx cAMP XS+ kit)
Format: cell-based
Conditions: HEK293-EBNA cells overexpressing mouse TGR5, luminescent cAMP assay; read-out: Mouse TGR5 Lum. cAMP Activity (EC50)

INSERT INTO assay_data (structure_as_smiles, metric, result_value) VALUES
  ('Cc1csc(-c2cc(N3CCC[C@H]3C(=O)NCCc3ccc(C#N)cc3)nc(C(F)(F)F)n2)c1', 'EC50', '100 to 999 nM'),
  ('COCC1CCN(c2cc(N3CCC[C@H]3C(=O)NCCc3ccc(C#N)cc3)nc(C(F)(F)F)n2)CC1', 'EC50', '< 100 nM'),
  ('O=C(NCCc1ccc(C(F)(F)F)cc1)[C@@H]1CCCN(c2cc(OC3CCOCC3)nc(C(F)(F)F)n2)C1', 'EC50', '100 to 999 nM'),
  ('CC(C)(C)OC(=O)NCC1CCN(c2cc(N3CCC[C@H]3C(=O)NCCc3ccc(C#N)cc3)nc(C(F)(F)F)n2)CC1', 'EC50', '100 to 999 nM');

Data request: Please report the recorded EC50 for `N#Cc1ccc(CCNC(=O)[C@@H]2CCCN2c2cc(N3CCC(CCN)CC3)nc(C(F)(F)F)n2)cc1` .
Data returned: < 100 nM

Data request: // repeat for `O=C(NCCc1ccc(C(F)(F)F)cc1)[C@@H]1CCCN1c1cc(-c2ccccn2)nc(C(F)(F)F)n1` and report
Data returned: 1000 to 30000 nM

Data request: Moving on to `N#Cc1ccc(CCNC(=O)[C@@H]2CCCN2c2cc(-c3ccc(C(F)(F)F)cc3)nc(C(F)(F)F)n2)cc1`
Data returned: 100 to 999 nM

###

Assay: Pharmacokinetic profile in mice after oral gavage
Assay type: in vivo, mouse
Details: mouse; fasted male Hilltop mice, 10 mg/kg oral gavage, plasma; read-out: Cmax
metric: Cmax (ng/mL)

Look over these answered cases.
INSERT INTO measurements (compound, result_value) VALUES
  ('O=C(CCCC1CCN(c2cc(N3CCC[C@H]3C(=O)NCCc3ccc(C(F)(F)F)cc3)nc(C(F)(F)F)n2)CC1)NCCS(=O)(=O)O [Compound 58]', 29),
  ('N#Cc1ccc(CCNC(=O)[C@@H]2C[C@@H](O)CN2c2cc(N3CCC(CCO)CC3)nc(C(F)(F)F)n2)cc1 [Compound 210]', 54),
  ('O=C(CCC1CCN(c2cc(N3CC[C@H]3C(=O)NCCc3ccc(C(F)(F)F)cc3)nc(C(F)(F)F)n2)CC1)NCS(=O)(=O)O [Compound 253]', 48),
  ('N=C(N)NCCS(=O)(=O)N1CCN(c2cc(N3CCC[C@@H](C(=O)NCCc4ccc(C(F)(F)F)cc4)C3)nc(C(F)(F)F)n2)CC1 [Compound 349]', 1.7),
  ('N#Cc1ccc(CCNC(=O)[C@@H]2CCCN2c2cc(N3CCC(CCCC(=O)N[C@@H](CCCNC(=N)N)C(=O)O)CC3)nc(C(F)(F)F)n2)cc1 [Compound 72]', 1.6),
  ('O=C(NCCCC1CCN(c2cc(N3CCC[C@H]3C(=O)NCCc3ccc(C(F)(F)F)cc3)nc(C(F)(F)F)n2)CC1)NCCS(=O)(=O)O [Compound 87]', 35),
  ('N#Cc1ccc(CCNC(=O)[C@@H]2CCCN2c2cc(N3CCC(CCCC(=O)NCCOCCOCCNC(=N)N)CC3)nc(C(F)(F)F)n2)cc1 [Compound 127]', 11),
  ('N#Cc1ccc(CCNC(=O)[C@@H]2CCCN(c3cc(N4CCC(CCNC(=O)NCCC(=O)O)CC4)nc(C(F)(F)F)n3)C2)cc1 [Compound 347]', 30);

a: O=C(CCCC1CCN(c2cc(N3CCC[C@H]3C(=O)NCCc3ccc(Cl)cc3)nc(C(F)(F)F)n2)CC1)NCS(=O)(=O)O [Compound 137]
b: N#Cc1ccc(CCNC(=O)[C@@H]2CCCN2c2cc(N3CCC(CCNC(=O)NCP(=O)(O)O)CC3)nc(C(F)(F)F)n2)cc1 [Compound 372]
Data request: Select one. Lower Cmax: a or b Indicate your choice by writing its label.
Data returned: a
(a: 22 ng/mL, b: 105 ng/mL)

###

Quick list: pEC50 per entry.
Target: UniProtKB Q8TDU6
Sequence (Q8TDU6 whole entry): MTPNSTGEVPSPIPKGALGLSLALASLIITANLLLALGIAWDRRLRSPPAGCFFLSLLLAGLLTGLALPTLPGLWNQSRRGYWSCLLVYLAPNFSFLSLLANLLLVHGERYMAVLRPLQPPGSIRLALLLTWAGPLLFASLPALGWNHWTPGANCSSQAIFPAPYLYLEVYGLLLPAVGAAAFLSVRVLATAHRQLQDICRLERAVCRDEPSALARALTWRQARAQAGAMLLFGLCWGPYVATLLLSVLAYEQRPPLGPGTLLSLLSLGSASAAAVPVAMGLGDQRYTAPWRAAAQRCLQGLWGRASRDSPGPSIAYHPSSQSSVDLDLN
Assay: Human TGR5 cAMP production assay (hTGR5-CHO cells, DiscoveRx cAMP XS+ kit)
Conditions: luminescent cAMP assay, read-out: Human TGR5 Lum. cAMP Activity (EC50)
pEC50: −log10 of the molar value.

Answered examples (5):
INSERT INTO measurements (structure_as_smiles, system_name, metric, result_value) VALUES
  ('N=C(N)NCCC[C@H](NC(=O)CCCC1CCN(c2cc(N3CCC[C@H]3C(=O)NCCc3ccc(C(F)(F)F)cc3)nc(C(F)(F)F)n2)CC1)C(=O)O', 'UniProtKB Q8TDU6', 'pEC50', '> 7.00'),
  ('N#Cc1ccc(CCNC(=O)[C@@H]2CCCN2c2cc(N3CCC(CCCNC(=O)NCCS(N)(=O)=O)CC3)nc(C(F)(F)F)n2)cc1', 'UniProtKB Q8TDU6', 'pEC50', '> 7.00'),
  ('O=C(CCCC1CCN(c2cc(N3CCC[C@H]3C(=O)NCCc3ccc(Cl)cc3)nc(C(F)(F)F)n2)CC1)NCS(=O)(=O)O', 'UniProtKB Q8TDU6', 'pEC50', '> 7.00'),
  ('Cc1noc(C)c1-c1cc(N2CCC[C@H]2C(=O)NCCc2ccc(C#N)cc2)nc(C(F)(F)F)n1', 'UniProtKB Q8TDU6', 'pEC50', '4.52 to 6.00'),
  ('N#CCCN1CCN(c2cc(N3CCC[C@H]3C(=O)NCCc3ccc(C#N)cc3)nc(C(F)(F)F)n2)CC1', 'UniProtKB Q8TDU6', 'pEC50', '> 7.00');

Data request: Fill in: pEC50 of `N#Cc1ccc(CCNC(=O)[C@@H]2CCN2c2cc(-c3cccnc3)nc(C(F)(F)F)n2)cc1` is ___
Data returned: 4.52 to 6.00

Data request: Okay, and `N=C(N)N[C@@H](CCC(=O)NCCCC1CCN(c2cc(N3CCC[C@H]3C(=O)NCCc3ccc(C(F)(F)F)cc3)nc(C(F)(F)F)n2)CC1)C(=O)O` ?
Data returned: > 7.00

Data request: // next record `O=C(CCCC1CCN(c2cc(N3CCC[C@H]3C(=O)NCCc3ccccc3)nc(C(F)(F)F)n2)CC1)NCS(=O)(=O)O`
Data returned: 6.00 to 7.00

Data request: Next entry: `N#Cc1ccc(CCNC(=O)[C@@H]2CCCN2c2cc(-c3ccc(CNC(=O)NCS(=O)(=O)O)cc3)nc(C(F)(F)F)n2)cc1`
Data returned: 6.00 to 7.00
